subjectOfTest: SMARCA2 (Homo sapiens, UniProt P51531)
Construct: endogenous in cells
Sequence (P51531 whole entry, species assumed): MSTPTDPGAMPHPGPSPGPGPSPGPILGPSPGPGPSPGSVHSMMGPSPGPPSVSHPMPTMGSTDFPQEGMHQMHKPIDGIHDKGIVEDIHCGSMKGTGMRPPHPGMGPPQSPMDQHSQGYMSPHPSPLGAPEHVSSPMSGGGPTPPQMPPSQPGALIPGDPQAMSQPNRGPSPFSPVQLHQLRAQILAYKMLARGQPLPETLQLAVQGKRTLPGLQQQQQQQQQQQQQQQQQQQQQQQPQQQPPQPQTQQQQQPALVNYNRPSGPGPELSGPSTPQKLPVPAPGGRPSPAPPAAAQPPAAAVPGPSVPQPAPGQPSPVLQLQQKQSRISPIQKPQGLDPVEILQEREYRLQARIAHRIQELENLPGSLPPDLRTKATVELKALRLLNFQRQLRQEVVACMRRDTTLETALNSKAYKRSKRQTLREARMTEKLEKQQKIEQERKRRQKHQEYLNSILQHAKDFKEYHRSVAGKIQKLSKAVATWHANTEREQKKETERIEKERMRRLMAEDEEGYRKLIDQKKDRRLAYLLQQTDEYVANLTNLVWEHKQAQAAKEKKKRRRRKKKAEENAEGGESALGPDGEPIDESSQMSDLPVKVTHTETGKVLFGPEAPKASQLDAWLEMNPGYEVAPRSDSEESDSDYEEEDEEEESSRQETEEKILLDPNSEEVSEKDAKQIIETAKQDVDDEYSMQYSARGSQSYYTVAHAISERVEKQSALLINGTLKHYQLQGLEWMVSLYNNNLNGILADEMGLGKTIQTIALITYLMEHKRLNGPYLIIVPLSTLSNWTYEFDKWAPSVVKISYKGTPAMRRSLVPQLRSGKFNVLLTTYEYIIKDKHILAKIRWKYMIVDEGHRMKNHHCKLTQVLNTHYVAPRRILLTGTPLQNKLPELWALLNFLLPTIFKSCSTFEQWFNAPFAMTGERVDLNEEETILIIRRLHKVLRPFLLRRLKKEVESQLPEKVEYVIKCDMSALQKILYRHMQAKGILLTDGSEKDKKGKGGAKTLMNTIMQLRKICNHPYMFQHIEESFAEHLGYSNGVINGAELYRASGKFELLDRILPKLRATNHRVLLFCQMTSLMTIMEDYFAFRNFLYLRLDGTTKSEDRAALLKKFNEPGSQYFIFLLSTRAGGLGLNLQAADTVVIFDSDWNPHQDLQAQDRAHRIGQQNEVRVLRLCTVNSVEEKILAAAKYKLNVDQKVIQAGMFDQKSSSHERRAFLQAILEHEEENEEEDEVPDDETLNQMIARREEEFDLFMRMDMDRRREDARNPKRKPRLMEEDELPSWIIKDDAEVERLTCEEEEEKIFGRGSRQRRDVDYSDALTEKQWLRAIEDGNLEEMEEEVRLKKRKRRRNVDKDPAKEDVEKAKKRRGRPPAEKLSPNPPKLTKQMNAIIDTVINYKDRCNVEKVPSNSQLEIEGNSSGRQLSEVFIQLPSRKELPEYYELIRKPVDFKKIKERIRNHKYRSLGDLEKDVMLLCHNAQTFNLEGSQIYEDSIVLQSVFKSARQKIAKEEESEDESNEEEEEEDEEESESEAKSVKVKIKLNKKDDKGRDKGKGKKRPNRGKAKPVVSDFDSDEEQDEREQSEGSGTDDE
assayNotes: SMARCA2 Cellular Degradation Assay (Western blot analysis on Jess platform)
Type: cell-based
statedConditions: cellular degradation
measuredQuantity: Dmax (%)

>  <compound>
CN(C(=O)C1(OC2CC2)CCN(c2cnnc(-c3ccccc3O)c2)CC1)C1CCN(CCC2CCN(c3ccc([C@H]4CCC(=O)NC4=O)c(F)c3)CC2)CC1 (racemic)

>  <reading>
81.4

$$$$
>  <compound>
Cn1ccc(C2(C(=O)N3CC4(CN(CC5CCN(c6ccc(C7CCC(=O)NC7=O)cc6)CC5)C4)C3)CCN(c3cnnc(-c4ccccc4O)c3)CC2)n1 (racemic)

>  <reading>
80.5

$$$$
>  <compound>
CN(C(=O)C1(Oc2ccccc2)CCN(c2cnnc(-c3ccccc3O)c2)CC1)C1CCN(CC2CCN(c3ccc([C@H]4CCC(=O)NC4=O)cc3)CC2)C2(CC2)C1 (mixture of isomers)

>  <reading>
90.6

$$$$
